Listed sequences paired with reported apparent KD of MS2 coat protein
System: MS2 coat protein
Assay: apparent KD of MS2 coat protein; designed switch direction (-1 OFF switch, 1 ON switch): 1; higher = weaker reporter binding
Details: input ligand: none
Reply numerically in nM, unit not repeated.

Past entries and their recorded results:
GAGCCAGUCCGAGGAUAUUCAUAAUUAAAUACAUGAGGAUCACCCAUGUAGGCAAGAGAGCCUUGGGAGAAGGCGGACUGGCUC [Xeonanisa>>2] (Eterna round: R96, puzzle: Same State NG 2) | 42.9
AUUAUUUAUGCAGGAUAUGAUUAACAUGAGGAUCACCCAUGUGGUGUUGUGAGUAAGGAGAGUGAUCAGAAGGGCAUUUUUUUU [JMF's solution 22] (Eterna round: R96, puzzle: Same State NG 2) | 447
AGUAAGAGUCAAGGAUAUGCUACCGUUUCGGUAGCAGAAGGUGAUCACAUGAGGAUCACCCAUGUAUAAAUGCGUGAGCGUGCU [JL SSNG1 3.63] (Eterna round: R96, puzzle: Same State NG 1) | 59
ACUAUUAAUGCAGGAUAUGAUUAACAUGAGGAUCACCCAUGUGGUGUUGUGAGUAAGGAGAGUGAUCAGAAGGGCAUUUUUUUU [JMF's solution 37] (Eterna round: R96, puzzle: Same State NG 2) | 629

Quote MS2 coat protein apparent KD of MS2 coat protein for entry CCGAUGGUAUACUAGGAUAUGGGCGCCCUUACAUGAGGAUCACCCAUGUUAUCACAAAUCCGCGGCCAGAAGGAGUUCAUGGGAG [Ustiririra] (Eterna round: R96, puzzle: Same State 2) .
138

----------
System: MS2 coat protein
Experiment: apparent KD of MS2 coat protein; designed switch direction (-1 OFF switch, 1 ON switch): -1; higher = weaker reporter binding
Details: input ligand: none
observation type: apparent KD of MS2 coat protein (nM)
Record the value in nM, omitting the unit from your answer.

Field: example entries. Status: answers known.
GGGUGACAUGAGGAUCACCCAUGUCAGGAUAUUGAUCGUGAUCGGAAAUGAUCGUGAUCGAGAAGGGACUGCCC [-27.4, -26.4 kcal, A 27% sequence 2] (Eterna round: R97, puzzle: Exclusion 1) | 52
CGUUGUCAAGGAUAUAUAGAGCUAUACAUGAGGAUCACCCAUGUGGUUAGUGUUGUGUGAGUAGAAGGUGGAAUGU [Eternabot (L2) Solution 99] (Eterna round: R97, puzzle: Exclusion 5) | 224
AACUAGUCAGGAUAUACAUGAGGAUCACCCAUGUAAACUUUUAGUUUAAUUUGAAUGUGUAGAAGGGACAUAAA [Ex3 #43] (Eterna round: R97, puzzle: Exclusion 3) | 20.3

Name the recorded apparent KD of MS2 coat protein of the sequence listed here: UGUUGUCGCGCAGGAUAUGAGGAUCACCCAUAUACAGGAUAUGAAAAGAAGGGUCUGAGGAUCACCCAGAAGGGCGGGACAACU [pwkr exNG2 2xF5 2xFMN.27] (Eterna round: R96, puzzle: Exclusion NG 2)
135

Fill in reported apparent KD of MS2 coat protein for this entry: CCGACGUGAGGAUAUCCAUCUGGAUCAGACUAGAUCCUGAUGGAGAAGGCACAUGAGGAUCACCCAUGUUACGG [Eli 4x 4.41] (Eterna round: R97, puzzle: Exclusion 4)
524

Tell me measured apparent KD of MS2 coat protein for UACCUGAGGCAAAGCUUUAGGCUUACAUGAGGAUCACCCAUGUAGGAUAUGGUAGGCAAAGCUUACCAGAAGGACAUGGAAAUU [Mat - Exclusion NG 3 - Mod of JL - D23] (Eterna round: R96, puzzle: Exclusion NG 3) please.
86.8

Hey, just so you know, these numbers are from the supplement of paper PMC9170038.
